B1: Cytoplasmic polyadenylation element-binding protein 2, residues 513 to 575; numbered along this chain, Q7Z5Q1 (parent)
chain: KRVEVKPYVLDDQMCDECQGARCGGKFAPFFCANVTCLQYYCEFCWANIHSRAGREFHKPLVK

Variants of: B1
assay comment: abundance fitness (aPCA) (normalised: wild type 0, dead -1); higher = more abundant; growth selection in yeast, the domain comes from the species named
assay conditions: Homo sapiens
// values below are reported abundance fitness

[
  {
    "variant": "Y41D",
    "abundance fitness": -0.729
  },
  {
    "variant": "P29I",
    "abundance fitness": -0.282
  },
  {
    "variant": "C15A",
    "abundance fitness": -0.394
  },
  {
    "variant": "A53F",
    "abundance fitness": -0.045
  },
  {
    "variant": "M14I",
    "abundance fitness": -0.082
  },
  {
    "variant": "A33W",
    "abundance fitness": -0.28
  },
  {
    "variant": "V62M",
    "abundance fitness": 0.081
  },
  {
    "variant": "V9Q",
    "abundance fitness": 0.096
  },
  {
    "variant": "H50L",
    "abundance fitness": -0.965
  },
  {
    "variant": "G54S",
    "abundance fitness": -0.009
  },
  {
    "variant": "L61V",
    "abundance fitness": 0.091
  },
  {
    "variant": "F30Y",
    "abundance fitness": 0.006
  },
  {
    "variant": "A28H",
    "abundance fitness": -0.495
  },
  {
    "variant": "D16P",
    "abundance fitness": -0.129
  },
  {
    "variant": "R52V",
    "abundance fitness": 0.102
  },
  {
    "variant": "R52M",
    "abundance fitness": 0.064
  },
  {
    "variant": "V9H",
    "abundance fitness": 0.051
  },
  {
    "variant": "T36R",
    "abundance fitness": -0.151
  },
  {
    "variant": "K6S",
    "abundance fitness": -0.085
  },
  {
    "variant": "C45F",
    "abundance fitness": -1.2
  },
  {
    "variant": "E43H",
    "abundance fitness": -0.079
  },
  {
    "variant": "L10M",
    "abundance fitness": 0.037
  }
]

The reported numbers originate from the Human Domainome abundance scans (Beltran et al. 2025).
